Items are presented alongside their recorded z-score.
Assay: adipocyte viability effects, profiling panel, cell-based, 3T3-L1 adipocytes, calcein-AM fluorescence, 48 h, basal (AID 1163); further: test concentration not given here
Conditions: 3T3-L1 adipocytes viability, higher = more signal
Just the number, please.

Short answer for `O=C1O[C@H](c2ccccc2)[C@H](c2ccccc2)N2[C@H]1[C@@H](C(=O)O)[C@]1(C(=O)Nc3ccccc31)[C@H]2c1ccc(O)cc1` : z-score was -0.268

Short answer for `Cc1c(NC(=O)/C(C#N)=C/C=C/c2ccccc2[N+](=O)[O-])c(=O)n(-c2ccccc2)n1C` : z-score was -0.355

Short answer for `Cc1ccc(S[C@]2(C(=O)NC3CC3)CC(=O)N(Cc3ccccc3Cl)[C@@H]2c2ccc(CO)cc2I)cc1` : z-score was 0.0656

Short answer for `O=C1c2ccccc2[C@](Cc2ccccc2I)(C(=O)NCc2ccccc2)[C@H](c2ccc(CO)cc2)N1C1CCCCC1` : z-score was 1.03

Short answer for O=C1OC[C@@H](c2ccccc2)N2CC(/C=C/c3ccccc3)=CC12 (stereo not given in full) : z-score was -0.125

---

Items are presented alongside their recorded composite z-score.
Experiment: small-molecule binders of probe aNOTCH2, primary screen, biochemical, small-molecule microarray, 635/667 nm fluorescence (AID 1121);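 further: score merges feature fluorescence read at 667 nm with its signal to noise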
Details: higher = more signal
Just the number, please.

[[record]]
compound = "CCOC(=O)C1=CC[C@@H](c2ccc([N+](=O)[O-])cc2)N(S(=O)(=O)c2ccc(C)cc2)[C@H]1c1ccccc1"
endpoint_result = -0.0297

[[record]]
compound = "CCN(CC)c1ccc(N2CC=CC34O[C@@H]5/C=C\\CCC(C)OC(=O)C5[C@H]3C(=O)N(CCO)[C@@H]4C2=O)cc1 (stereo not given in full)"
endpoint_result = -0.132

[[record]]
compound = "COCCOC(=O)N1C(=O)[C@@]2(c3cc(C#Cc4ccc(OC)cc4)ccc31)[C@H](C(=O)N1CCN(c3ncccn3)CC1)[C@H]1C(=O)O[C@H](c3ccccc3)[C@H](c3ccccc3)N1[C@@H]2c1ccccc1OCCO"
endpoint_result = -0.114

[[record]]
compound = "CN1C(=O)C2C=CC(C(O)Cc3ccccc3)N(N(c3ccccc3)c3ccccc3)C2C1=O (stereo not given)"
endpoint_result = -0.0086

[[record]]
compound = "C[C@@H](OCc1ccccc1)C1NC(=O)[C@@]23C(=O)N[C@@H](Cc4ccccc4)C2[C@H](C)[C@@]2(C)O[C@H]2C3/C=C/C/C=C\\CNC(=O)CNC1=O (stereo not given in full)"
endpoint_result = -0.133

[[record]]
compound = "O=c1cccc(-c2ccc(C(F)(F)F)cc2)o1"
endpoint_result = -0.11


Shift focus to the following entry.
Short answer for COc1cc(OC)c(C(O)C2C=CC3C(=O)N(c4ccccc4)C(=O)C3N2Nc2ccc(C#N)cc2)cc1Br (stereo not given) : composite z-score was 0.401

---

Biological target: E3 ubiquitin-protein ligase XIAP (Homo sapiens) (UniProt P98170)
Sequence (P98170 whole entry, looked up): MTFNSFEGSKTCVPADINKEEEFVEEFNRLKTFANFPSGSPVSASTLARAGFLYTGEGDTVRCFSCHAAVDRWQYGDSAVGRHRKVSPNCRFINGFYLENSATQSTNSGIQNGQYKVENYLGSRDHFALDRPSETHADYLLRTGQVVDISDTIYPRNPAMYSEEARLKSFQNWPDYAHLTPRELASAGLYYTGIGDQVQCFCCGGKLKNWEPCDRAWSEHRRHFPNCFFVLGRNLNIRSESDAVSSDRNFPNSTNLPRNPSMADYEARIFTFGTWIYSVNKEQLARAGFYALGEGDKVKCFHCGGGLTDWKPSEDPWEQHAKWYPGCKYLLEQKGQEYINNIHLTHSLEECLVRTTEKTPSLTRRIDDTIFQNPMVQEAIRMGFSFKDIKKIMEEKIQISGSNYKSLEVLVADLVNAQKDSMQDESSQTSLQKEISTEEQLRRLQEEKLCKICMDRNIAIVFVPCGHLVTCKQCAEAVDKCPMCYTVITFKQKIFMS
Assay: XIAP binders, primary screen, biophysical, small-molecule microarray, fluorescence 635 nm (AID 1181);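 further: score merges 667 nm emission and signal to noise over triplicate slides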
Conditions: small-molecule microarray binding, higher = more signal
measured.property: composite z-score
Just the number, please.

Please review the entries below; each comes with its answer.
[[record]]
compound = "COc1ccc([Si](C)(C)[C@@H]2[C@@H](CCO)O[C@]3(C(=O)N(Cc4cccc(N5C(=O)c6ccccc6Oc6ccccc65)c4)c4ccccc43)[C@H]2C)cc1"
endpoint_result = -0.177

[[record]]
compound = "O=C1O[C@@H](c2ccccc2)[C@@H](c2ccccc2)N2[C@@H](c3ccccc3OCCO)[C@]3(C(=O)Nc4ccccc43)[C@@H](C(=O)NC[C@H](O)c3ccccc3)[C@H]12"
endpoint_result = 0.311


Shift focus to the following entry.
Short answer for CC(C)c1ccc(NN2C(C(O)c3ccco3)C=CC3C(=O)N(c4ccccc4)C(=O)C32)cc1 (configuration not stated) : composite z-score was -0.0026

---

Assay: E. coli acrAB mutant growth effects, primary screen, E. coli filamentation inducers, strain DRC39, OD650, 48 h (AID 1179);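 further: screen aims at cell division blockers that make cells filament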
Settings: E. coli DRC39 delta-acrAB growth, higher = more signal, called active from +8 up or from −8 down
Items are presented alongside their recorded z-score.
Just the number, please.

Please review the entries below; each comes with its answer.
[[record]]
compound = "COC(=O)[C@@]1(Cc2ccccc2)[C@H]2c3cc(C(=O)N4CCCC4)n(Cc4ccsc4Br)c3C[C@H]2CN1C(=O)c1ccccc1"
measured_property = "z-score"
endpoint_result = 0.139

[[record]]
compound = "COc1c(C)cc(-c2cc3c(c(Cc4ccccc4)n2)[Si](C(C)C)(C(C)C)OC3)cc1C"
measured_property = "z-score"
endpoint_result = -0.779

[[record]]
compound = "COC(=O)C1(Cc2ccccc2)C=C2C(=C(c3ccccc3)C(=O)C2C)CN1 (stereo not drawn)"
measured_property = "z-score"
endpoint_result = -0.628

[[record]]
compound = "COC(=O)[C@@]1(Cc2ccccc2)[C@H]2c3cc(C(=O)N4CCCC4)n(Cc4cc(F)cc5c4OCOC5)c3C[C@H]2CN1C(=O)c1ccccc1"
measured_property = "z-score"
endpoint_result = -0.37

[[record]]
compound = "CC(C)OC(=O)CC(=O)CC(O)c1cccc(C#N)c1 (stereo not drawn)"
measured_property = "z-score"
endpoint_result = 1.93


Short answer for `O=c1cccc(-c2cccc(Cl)c2)o1` : z-score was -0.326

Short answer for `COCCOC(=O)N1C(=O)[C@@]2(c3cc(C#Cc4ccc(OC)cc4)ccc31)[C@H](C(=O)N1CCN(c3ncccn3)CC1)[C@H]1C(=O)O[C@H](c3ccccc3)[C@H](c3ccccc3)N1[C@@H]2c1ccccc1OCCO` : z-score was 0.188

Short answer for `COc1ccccc1CN1C(=O)c2ccccc2[C@](Cc2ccccc2I)(C(=O)NC(C)C)[C@@H]1c1ccc(CO)cc1` : z-score was 1.01

---

Assay: basal RPMI8226 viability, no added stimulus, profiling panel, cell-based, calcein-AM fluorescence, 48 h, PK04 Diversity Set (AID 1166);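 further: cells grown under basal conditions without added stimulus; test concentration not given here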
Settings: RPMI8226 myeloma viability, higher = more signal
Please use the following z-score ranges when assigning a class: class 0 = under -1, class 1 = from -1 up to 0.3, class 2 = 0.3 and over

Query: // return the class label for `O=C(CCCCCCC(=O)Nc1ccccc1)N/N=C/c1ccccc1`
Response: class 1

---

Test: MM1S cell viability effects, profiling panel, calcein-AM fluorescence, 48 h, basal (AID 1165);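 further: viability of MM1S multiple myeloma cells under basal unstimulated conditions; test concentration not given here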
Settings: higher = more signal
measured.property: z-score
Just the number, please.

Please review the entries below; each comes with its answer.
[[record]]
molecule = "CCCCN1CC=CC23O[C@@H]4C=CCOC(=O)[C@@H]4[C@H]2C(=O)N(CCCO)[C@@H]3C1=O (some centres undefined)"
measured_property = "z-score"
endpoint_result = 0.799

[[record]]
molecule = "CN1C(=O)C2C=CC(C(O)Cc3ccccc3)N(N(c3ccccc3)c3ccccc3)C2C1=O (centres undefined)"
measured_property = "z-score"
endpoint_result = -0.64

[[record]]
molecule = "COC(=O)[C@@]1(Cc2ccc(F)cc2)[C@H]2c3cc(C(=O)N4CCCC4)n(CCc4c[nH]c5ccc(OC)cc45)c3C[C@H]2CN1C(=O)c1ccccc1"
measured_property = "z-score"
endpoint_result = -2.13


Short answer for `O=C1O[C@@H](c2ccccc2)[C@@H](c2ccccc2)N2[C@@H](c3ccc(O)cc3)[C@]3(C(=O)Nc4ccc(C#CC5=CCCCC5)cc43)[C@@H](C(=O)N3CCN(c4ncccn4)CC3)[C@H]12` : z-score was -1.2

---

Experiment: cell viability in Huh7 cells, primary screen, cytotoxicity control for HCV replication inhibitor project, CellTiter-Glo luminescence, basal, 48 h (AID 1143);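 further: Huh7 hepatoma cells carrying a hepatitis C replication reporter with no stimulus; test concentration not given here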
Conditions: Huh7 HCV replicon, higher = more signal, called active from +8 up or from −8 down
Items are presented alongside their recorded z-score.
Just the number, please.

Please review the entries below; each comes with its answer.
[[record]]
compound = "COc1ccc([Si](C)(C)[C@@H]2[C@@H](CCO)O[C@]3(C(=O)N(Cc4cccc(N5C(=O)c6cccc7cccc5c67)c4)c4ccccc43)[C@H]2C)cc1"
measured_property = "z-score"
endpoint_result = -5.93

[[record]]
compound = "O=C1NC(=O)C2C1C=CC(C(O)c1ccc(Br)cc1)N2Nc1ccccn1 (centres undefined)"
measured_property = "z-score"
endpoint_result = -0.0358

[[record]]
compound = "CN(C)CCCN1C(=O)[C@@]2(c3ccc([N+](=O)[O-])cc3)CC(=O)N(CC34CC5CC(CC(C5)C3)C4)[C@@H]2c2ccc(CO)cc21"
measured_property = "z-score"
endpoint_result = 0.278


Shift focus to the following entry.
Short answer for `Cc1c(NC(=O)/C(C#N)=C/C=C/c2ccccc2[N+](=O)[O-])c(=O)n(-c2ccccc2)n1C` : z-score was -3.01

---

Items are presented alongside their recorded composite z-score.
Biological target: Dihydroorotate dehydrogenase (quinone), mitochondrial (Plasmodium falciparum (isolate 3D7))
Experiment: PfDHODH enzyme inhibitors, primary screen, biochemical, C-terminal His tag, absorbance 600 nm (AID 1175);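 further: recombinant parasite enzyme with a five histidine tag at its C terminus; test concentration not given here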
Conditions: DCIP absorbance 600 nm, higher = more signal, called active from +8 up or from −8 down
Just the number, please.

Short answer for `Cc1ccc(F)cc1S(=O)(=O)N[C@@H]1CCN(Cc2ccc(Oc3ccccc3)cc2)C1` : composite z-score was 0.255

Short answer for `CCCCC(=C=CC[C@@H](O)c1ccc(OCCO)cc1)C[C@@H](O)COCc1ccccc1` : composite z-score was -2.29
